The reported numbers originate from patent US10463753B2.

MEASUREMENT_NOTES: In vitro plasma protein binding by ultrafiltration
Format: in vitro ADME
RUN_CONDITIONS: rhesus monkey, first study, read-out: Plasma free fraction (not protein bound)
QUANTITY_MEASURED: fraction unbound

                                   compound  quantity_measured  reported
0  O=C(OC(C(F)(F)F)C(F)(F)F)N1CCN(Cc2ccc(Cl)cc2N2CCN(CC[18F])CC2)CC1 [Compound 8F]   fraction unbound     0.047

---

MEASUREMENT_NOTES: In vitro plasma protein binding by ultrafiltration
Assay type: in vitro ADME
RUN_CONDITIONS: rhesus monkey, second study, read-out: Plasma free fraction (not protein bound)
QUANTITY_MEASURED: fraction unbound

In [3]: df
Out[3]:
                                  structure  reported
0  O=C(OC(C(F)(F)F)C(F)(F)F)N1CCN(Cc2ccc(Cl)cc2N2CCN(CC[18F])CC2)CC1     0.008
